# key: entry, value: self-cleavage
B1: Osa-1-4 twister ribozyme (parent)
chain: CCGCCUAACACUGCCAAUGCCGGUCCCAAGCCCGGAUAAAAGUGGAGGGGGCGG

# Variants of: B1
# measurement.description: self-cleavage, relative activity (ratio to wild type); higher = more cleavage; co-transcriptional
Please state the value as a number alone, without comment.

[[record]]
mutation_annotation = "A8C C25G"
reported_measurement = 0.03

[[record]]
mutation_annotation = "C14U C21U"
reported_measurement = 0.39

[[record]]
mutation_annotation = "A38U C14A"
reported_measurement = 0.07

[[record]]
mutation_annotation = "A28U G42A"
reported_measurement = 0.16

[[record]]
mutation_annotation = "A16U G50C"
reported_measurement = 0.95


Any idea what its self-cleavage is? The variant is A41C G30A
0.05

Give the measured self-cleavage of A17G C9A .
0.33

# self-cleavage lookup, item C20G G47U
0.03

So what does the record say about self-cleavage for A17U G50A ?
0.69

Quick one: self-cleavage of C11G G35A ?
0.08

# get_value(readout='self-cleavage', item= A28C G50U )
0.98

Need self-cleavage, item A17G G22C
0.15

Look up self-cleavage: A29U U12C
0.05

Fill in the blank: the reported self-cleavage of C9A G48C is ____.
0.02

The reported numbers originate from the RNAGym collection of RNA variant scans (doi:10.1002/anie.201605470).
